In this section we review reported EC50 values for a set of binders.
Target entity: T1, recombinant cynoPD-1 (construct not stated) (cynomolgus monkey, UniProt B0LAJ3 25-170)
T1 construct: not shown: probably His as elsewhere
T1 sequence (B0LAJ3 entry or part of it limits assumed): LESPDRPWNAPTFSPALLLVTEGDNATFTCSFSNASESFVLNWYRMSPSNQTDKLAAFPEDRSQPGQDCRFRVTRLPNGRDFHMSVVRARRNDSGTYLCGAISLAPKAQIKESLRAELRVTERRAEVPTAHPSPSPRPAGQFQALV
Measurement description: ELISA
// return numeric value only (unit: nM, not printed)

Binder | EC50, nM
z2-XVT458 (antibody, IgG1, V domains shown, full hIgG1; also called XVT458-z2; GH + T071V) VH: QVQLVQSGAEVKKPGASVKVSCKASGYTFTNFYIHWVRQAPGQGLEWMGSIYPNYGDTAYNQKFKDRVTMTVDTSTSTAYMELRSLRSDDTAVYYCARGYSYAMDYWGQGTTVTVSS VL: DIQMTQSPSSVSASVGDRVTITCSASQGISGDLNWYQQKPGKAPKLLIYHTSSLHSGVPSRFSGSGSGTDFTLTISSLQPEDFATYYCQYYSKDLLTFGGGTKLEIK | 0.4

Problem: Given the binder XVT458-z2-m5 (antibody, V domains shown, IgG format; also called z2_XVT458m5) VH: QVQLVQSGAEVKKPGASVKVSCKASGYTFTNFYIHWVRQAPGQGLEWMGRIYPNYGITAYNQKFKDRVTMTVDTSTSTAYMELRSLRSDDTAVYYCARGYSYAMDYWGQGTTVTVSS VL: DIQMTQSPSSVSASVGDRVTITCSASQGIYGDLNWYQQKPGKAPKLLIYHTSSRHSGVPSRFSGSGSGTDFTLTISSLQPEDFATYYCQAYSKDLLTFGGGTKLEIK , write its reported EC50.
Result: 0.056

Data origin: patent US20260207767A1
